The measurements presented in this section are drawn from patent US20050209278A1.

- TARGET_ENTITY: MMP-13 (Homo sapiens, UniProt P45452)
- Construct: made in house; host or cells: baculovirus / insect cells
- ASSAY_DETAILS: In vitro MMP inhibition, Ki determination (fluorogenic substrate II)
- Format: biochemical
- TEST_CONDITIONS: value outside parentheses; read-out: MMP-13 Ki
Would you kindly list pKi for each of these compounds?
// scale note: pKi = -log10(conc_M); give the bare number

Lookup: Returns the measured pKi for the input compound. Input: `O=C(NO)C1(S(=O)(=O)N2CCC(COCC(F)(F)C(F)(F)F)CC2)CCOCC1`
Found: 7.51

Lookup: Can you share its pKi? I mean this compound: `CCCCCc1ccc(-c2cnc(N3CCN(S(=O)(=O)C4(C(=O)NO)CCOCC4)CC3)s2)cc1`
Found: 9.19

Lookup: Can you share its pKi? I mean this compound: `O=C(NO)C1(S(=O)(=O)N2CCC(c3ccc(-c4ccc(C(F)(F)F)cc4)cn3)CC2)CCOCC1`
Found: 9.05

Lookup: Record request: pKi value, item `O=C(NO)C1(S(=O)(=O)N2CCC(COCc3ccccc3)CC2)CCOCC1`
Found: 8.47

Lookup: Could you share which pKi value was measured for `O=C(NO)C1(S(=O)(=O)N2CCN(c3ccc(-c4ccc(F)cc4F)cn3)CC2)CCOCC1` ?
Found: 9.11

Lookup: GET /values?readout=pKi&item= `CCCCOc1ccc(N2CCN(S(=O)(=O)C3(C(=O)NO)CCN(c4ccc(Cl)nn4)CC3)CC2)cc1`
Found: 9.35

Lookup: pKi lookup needed for `O=C(NO)C1(S(=O)(=O)N2CCC(c3ccc(OCc4ccccc4)cn3)CC2)CCOCC1` , thanks.
Found: 9.82

Lookup: Would you kindly share the measured pKi for `NC(=O)c1ccccc1-c1cnc(N2CCN(S(=O)(=O)C3(C(=O)NO)CCOCC3)CC2)s1` ?
Found: 6.98

====

- TARGET_ENTITY: MMP-1 (Homo sapiens)
- Construct: made in house; host or cells: MMP-1-transfected HT-1080 cells (spent media)
- ASSAY_DETAILS: In vitro MMP inhibition, Ki determination (fluorogenic substrate II)
- Type: biochemical
- TEST_CONDITIONS: value outside parentheses; read-out: MMP-1 Ki
- Sequence (P03956 100-469): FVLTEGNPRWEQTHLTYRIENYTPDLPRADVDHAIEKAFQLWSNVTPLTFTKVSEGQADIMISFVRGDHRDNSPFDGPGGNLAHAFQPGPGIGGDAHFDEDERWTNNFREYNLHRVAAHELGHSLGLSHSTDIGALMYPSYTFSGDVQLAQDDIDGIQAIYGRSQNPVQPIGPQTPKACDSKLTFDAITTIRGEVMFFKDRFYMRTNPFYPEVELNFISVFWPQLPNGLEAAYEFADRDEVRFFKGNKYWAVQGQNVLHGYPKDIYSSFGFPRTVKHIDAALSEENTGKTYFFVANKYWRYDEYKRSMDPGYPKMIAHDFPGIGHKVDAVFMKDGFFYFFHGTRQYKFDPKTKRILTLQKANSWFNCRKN
Hi! Just check whether Ki is below 7 µM. Below gives Condition met, equal or above gives Condition not met.

Lookup: Say whether its Ki is strictly beneath 7 µM. Entry: `CCCCOc1ccc(N2CCN(S(=O)(=O)C3(C(=O)NO)CCN(CC4CC4)CC3)CC2)cc1`
Found: Condition not met

Lookup: Would you kindly verify if Ki of `O=C(NO)C1(S(=O)(=O)N2CCC(c3ccc(CCC(F)(F)F)cn3)CC2)CCOCC1` is strictly less than 7 µM?
Found: Condition not met

Lookup: Given `CCc1ccc(N2CCN(S(=O)(=O)C3(C(=O)NO)CCCC3)CC2)nc1` , is recorded Ki strictly lower than 7 µM?
Found: Condition met

Lookup: Please let me know if `O=C(NO)C1(S(=O)(=O)N2CCC(c3ccc(-c4cccnc4)cn3)CC2)CCOCC1` shows Ki below 7 µM.
Found: Condition not met

Lookup: Problem: For the compound `Cc1cccc(-c2cnc(N3CCN(S(=O)(=O)C4(C(=O)NO)CCOCC4)CC3)s2)c1` , is Ki under 7 µM?
Found: Condition met

Lookup: Report whether reported Ki is lower than 7 µM (strictly) for `O=C(NO)C1(S(=O)(=O)N2CCN(c3ncc(-c4ccc5c(c4)OCO5)s3)CC2)CCOCC1`
Found: Condition met

Lookup: hey, is Ki for `CCCCOc1ccc(N2CCN(S(=O)(=O)C3(C(=O)NO)CCN(C(=O)c4ccncc4)CC3)CC2)cc1` lower than 7 µM or not?
Found: Condition not met

Lookup: Check if Ki falls below 7 µM for `COCCN1CCC(C(=O)NO)(S(=O)(=O)N2CCC(c3ncc(CC(C)C)s3)CC2)CC1` .
Found: Condition not met

Lookup: Answer whether the compound `O=C(NO)C1(S(=O)(=O)N2CCN(c3ccc(-c4ccc(OC(F)(F)F)cc4)cc3)CC2)CCOCC1` has Ki strictly less than 7 µM
Found: Condition not met

Lookup: Does the reported Ki of `NC(=O)c1ccccc1-c1cnc(N2CCN(S(=O)(=O)C3(C(=O)NO)CCOCC3)CC2)s1` stay below 7 µM?
Found: Condition not met

Lookup: Find out if reported Ki for `O=C(NO)C1(S(=O)(=O)N2CCN(c3ncc(-c4ccc(Cl)cc4)s3)CC2)CCOCC1` is less than 7 µM
Found: Condition met

Lookup: Just wondering, is Ki of `CCCCOc1ccc(N2CCN(S(=O)(=O)C3(C(=O)NO)CCN(Cc4ccccc4)CC3)CC2)cc1F` below 7 µM?
Found: Condition not met

Lookup: API: query returns whether the compound falls strictly under 7 µM in Ki. Query: `O=C(NO)C1(S(=O)(=O)N2CCN(c3ccc(OCC4CC4)c(F)c3)CC2)CCOCC1`
Found: Condition not met

Lookup: Below 7 µM on Ki? Entry `Cc1ccccc1-c1cnc(N2CCN(S(=O)(=O)C3(C(=O)NO)CCOCC3)CC2)s1`
Found: Condition not met

Lookup: Please check: Ki for `CCCCOc1ccc(N2CCN(S(=O)(=O)C3(C(=O)NO)CCN(c4ccc(C)cc4)CC3)CC2)cc1` , strictly under 7 µM or not?
Found: Condition not met

Lookup: is_below(Ki, 7 µM) for `O=C(NO)C1(S(=O)(=O)N2CCN(c3ccc(CCCC(F)(F)F)cn3)CC2)CCOCC1` ?
Found: Condition not met

====

- TARGET_ENTITY: MMP-1 (Homo sapiens, UniProt P03956)
- Construct: made in house; host or cells: MMP-1-transfected HT-1080 cells (spent media)
- ASSAY_DETAILS: MMP-1 inhibition (in vitro Ki)
- Type: biochemical
- TEST_CONDITIONS: Table 8; read-out: MMP-1 Ki
- Sequence (P03956 100-469, species assumed): as the sequence (P03956 100-469) above
Counter-ions that a name gives are not always drawn.
QUANTITY: pKi
Notebook: values listed as pKi are -log10 of the concentration (mol/L).

Lookup: Notebook: pull reported pKi for MMP-1 (Homo sapiens, UniProt P03956), entry `O=C(NO)C1(S(=O)(=O)N2CCC(CCCCCOCCC(F)(F)F)CC2)CCOCC1`
Found: 5.17

Lookup: Missing value: pKi, MMP-1 (Homo sapiens, UniProt P03956), entry `O=C(NO)C1(S(=O)(=O)N2CCC(CCCCCC(F)(F)F)CC2)CCOCC1` . Fill in?
Found: 5.51

Lookup: Record lookup: for MMP-1 (Homo sapiens, UniProt P03956), what pKi belongs to `O=C(NO)C1(S(=O)(=O)N2CCC(CCCCCOCC(F)(F)F)CC2)CCOCC1` ?
Found: 5.28

Lookup: Give MMP-1 (Homo sapiens, UniProt P03956) pKi for `CCCOCCCCC1CCN(S(=O)(=O)C2(C(=O)NO)CCOCC2)CC1`
Found: 5.70

Lookup: Request: pKi, test system MMP-1 (Homo sapiens, UniProt P03956), entry O=C(NO)C1(S(=O)(=O)N2CCC(c3ccc(OCC(F)(F)C(F)(F)F)cn3)CC2)CCOCC1 [Example A58, Hydrochloride]
Found: 5.81

====

- TARGET_ENTITY: MMP-9 (Homo sapiens, UniProt P14780)
- Construct: made in house; host or cells: MMP-9-transfected HT1080 cells (spent media)
- Sequence (P14780 107-707 limits assumed): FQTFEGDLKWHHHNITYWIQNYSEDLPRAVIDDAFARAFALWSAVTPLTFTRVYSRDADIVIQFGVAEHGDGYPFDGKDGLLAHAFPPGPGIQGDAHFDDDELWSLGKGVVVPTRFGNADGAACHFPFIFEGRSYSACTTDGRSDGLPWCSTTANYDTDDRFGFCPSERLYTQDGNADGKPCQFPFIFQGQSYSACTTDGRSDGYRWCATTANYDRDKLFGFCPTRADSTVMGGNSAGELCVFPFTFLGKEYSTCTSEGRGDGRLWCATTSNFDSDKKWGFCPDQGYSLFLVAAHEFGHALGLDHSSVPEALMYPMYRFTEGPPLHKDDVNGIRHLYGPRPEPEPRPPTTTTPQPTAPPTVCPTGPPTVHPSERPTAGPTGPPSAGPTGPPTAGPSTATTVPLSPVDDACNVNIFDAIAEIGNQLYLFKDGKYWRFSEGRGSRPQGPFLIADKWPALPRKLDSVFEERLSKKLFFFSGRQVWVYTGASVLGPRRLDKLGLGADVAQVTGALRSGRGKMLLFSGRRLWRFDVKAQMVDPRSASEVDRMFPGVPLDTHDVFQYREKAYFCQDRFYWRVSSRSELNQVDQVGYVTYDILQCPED
- ASSAY_DETAILS: MMP-9 inhibition (in vitro Ki)
- Type: biochemical
- TEST_CONDITIONS: Table 9; read-out: MMP-9 Ki (IC-50)
Please go through the items and note down their pKi.
pKi (log units): -log10 of the concentration in mol/L.

Lookup: Look at this compound and give its reported pKi. `O=C(NO)C1(S(=O)(=O)N2CCC(c3ccc(CCc4ccsc4)cn3)CC2)CCOCC1`
Found: 8.10

Lookup: // pKi lookup, key: `CN(C(=O)CCCC1CCN(S(=O)(=O)C2(C(=O)NO)CCOCC2)CC1)c1ccc(F)cc1`
Found: 6.58

Lookup: Suppose we examine the compound `O=C(NO)C1(S(=O)(=O)N2CCC(c3ccc(C#CCc4ccccc4)cn3)CC2)CCOCC1` ; what pKi value has been reported?
Found: 8.90

Lookup: Recorded pKi for `COC(=O)CCCC#Cc1ccc(C2CCN(S(=O)(=O)C3(C(=O)NO)CCOCC3)CC2)nc1` , please?
Found: 8.69

Lookup: For `Cc1ccc(N2CCC(C(=O)NO)(S(=O)(=O)N3CCC(c4ccc(CCC(F)(F)C(F)(F)F)cn4)CC3)CC2)cn1` , what is its reported pKi?
Found: 9.24

Lookup: pKi for `COCCOc1ccc(C2CCN(S(=O)(=O)C3(C(=O)NO)CCOCC3)CC2)nc1` ?
Found: 8.15

Lookup: Quick one: pKi of `CC(C)CN(C)C(=O)/C=C/C=C/C1CCN(S(=O)(=O)C2(C(=O)NO)CCOCC2)CC1` ?
Found: 5.23

Lookup: // returns reported pKi for input `O=C(NO)C1(S(=O)(=O)N2CCN(c3ccc(CCC(F)(F)F)cn3)CC2)CCOCC1`
Found: 9.28

Lookup: Which pKi is reported for this compound? `CN(CC1CCCCC1)C(=O)CCCC1CCN(S(=O)(=O)C2(C(=O)NO)CCOCC2)CC1`
Found: 5.77

Lookup: Given the compound `CC(C)COc1cnc(C2CCN(S(=O)(=O)C3(C(=O)NO)CCOCC3)CC2)cn1` , what is its reported pKi?
Found: 9.35

Lookup: Requested field: pKi. Item: `O=C(/C=C/C=C/C1CCN(S(=O)(=O)C2(C(=O)NO)CCOCC2)CC1)N1CCc2ccccc2C1`
Found: 6.30

Lookup: What does the record list as pKi for `O=C(NO)C1(S(=O)(=O)N2CCN(c3ccc(-c4cccs4)cn3)CC2)CCOCC1` ?
Found: 8.67

Lookup: pKi lookup needed for `O=C(/C=C/C=C/C1CCN(S(=O)(=O)C2(C(=O)NO)CCOCC2)CC1)N1CCN(c2ccccc2)CC1` , thanks.
Found: 5.75

Lookup: Consider the compound shown here: `Cc1ccc(N(C)C(=O)CCCC2CCN(S(=O)(=O)C3(C(=O)NO)CCOCC3)CC2)cc1` What is its recorded pKi?
Found: 6.74

Lookup: Reported pKi, compound `CCC(CC)(C(=O)NO)S(=O)(=O)N1CCC(c2ccc(OCC3CC3)cn2)CC1` : ____
Found: 9.23

Lookup: Look up pKi for this compound: `COC(=O)CCCC1CCN(S(=O)(=O)C2(C(=O)NO)CCOCC2)CC1`
Found: 8.42
